- experiment_description: in vivo
- Set-up: species or system mice
- assay_context: male, NOD.Cg-Rag1tm1Mom Il2rgtm1Wjl/SzJ (NRG), mouse, iv, total radioactivity, Ratio Tumor-to-Blood
Where a SMILES comes first, the peptide text is derived from it. Bridges are numbered along the chain shown (N, C = ends). [ ]: non-standard residue; d: D form. The star is where a group is joined. X5 = O=C(O)CN1CCN(CC(=O)O)CCN(CC(=O)N[C@@H](CS(=O)(=O)O)C(=O)N[C@@H](CCCCNC(=O)CCCc2ccc(Cl)cc2)C(=O)*)CCN(CC(=O)O)CC1; 2Nal = N[C@@H](Cc1ccc2ccccc2c1)C(=O)O; Lys(iPr) = CC(C)NCCCC[C@H](N)C(=O)O
attribute_measured: tissue to tissue ratio at 1 h

CC(C)NCCCC[C@H](NC(=O)[C@H]1CCC(=O)N[C@@H](CCCCNC(=O)[C@H](CCCCNC(=O)CCCc2ccc(Cl)cc2)NC(=O)[C@H](CS(=O)(=O)O)NC(=O)CN2CCN(CC(=O)O)CCN(CC(=O)O)CCN(CC(=O)O)CC2)C(=O)N[C@@H](Cc2ccc(O)cc2)C(=O)N[C@@H](CCCCNC(C)C)C(=O)N[C@H](CCCNC(=N)N)C(=O)N[C@@H](Cc2ccc3ccccc3c2)C(=O)N[C@H](C)C(=O)N1)C(N)=O [[^68Ga]Ga-BL34L16, metal not drawn] (K(X5)Y[Lys(iPr)][dR][2Nal][dA][dE][Lys(iPr)]-NH2; lactam N-7)    1.38
